Provide the reported Percent Similarity Score (KD on cN) of each item.
Target: T1, canine NGF (canine, UniProt Q29074 110-229 (pig entry), limits assumed)
T1 construct: The protein was secreted from CHO cells and purified; also called cNGF; canine β-NGF
T1 chain: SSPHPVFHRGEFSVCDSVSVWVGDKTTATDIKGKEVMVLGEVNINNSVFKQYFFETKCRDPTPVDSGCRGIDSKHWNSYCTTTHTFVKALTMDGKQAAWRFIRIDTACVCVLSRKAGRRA
Assay: SPR (Biacore T200), 100 nM mAb on NGF chip, similarity to parent mAb

Some binders with known Percent Similarity Score (KD on cN) results, for comparison:
can48L2VH_S52A (antibody, V domains shown, CDR scanning mutant of ZTS-842 (48L2)) VH: EVQLVESGGDLVKPGGSLRLSCVASGFTFSTYGINWVRQAPGKGLQWVAYIASGGSSTYYADPVKGRFTISRDDAKNMLYLQMNSLRAEDTAIYYCAGSRYTYAYGGGYEFHFWGQGTLVTVSS VL: QAVLNQPASVSGALGQKVTISCSGSTMDIDIFGVSWYQQLPGKAPKLLVDSDGDRPSGIPDRFSGSRSGNSGTLTITGLQAEDEADYHCQSGDSTLGALAIFGGGTHVTVL :: 99.4%
can48L2VL_D52A (antibody, V domains shown, CDR scanning mutant of ZTS-842 (48L2)) VH: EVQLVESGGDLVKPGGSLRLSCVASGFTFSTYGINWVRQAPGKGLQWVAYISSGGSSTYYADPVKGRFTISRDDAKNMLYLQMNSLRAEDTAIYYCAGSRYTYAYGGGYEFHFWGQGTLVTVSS VL: QAVLNQPASVSGALGQKVTISCSGSTMDIDIFGVSWYQQLPGKAPKLLVDSAGDRPSGIPDRFSGSRSGNSGTLTITGLQAEDEADYHCQSGDSTLGALAIFGGGTHVTVL :: 99.7%

Lab note: each binder below needs its Percent Similarity Score (KD on cN) filled in.
1. can48L2VL_S94A (antibody, V domains shown, CDR scanning mutant of ZTS-842 (48L2)) VH: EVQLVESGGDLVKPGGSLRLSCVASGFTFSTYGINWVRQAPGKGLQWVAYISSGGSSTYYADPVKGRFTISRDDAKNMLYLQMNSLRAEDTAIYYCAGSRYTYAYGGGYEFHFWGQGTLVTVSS VL: QAVLNQPASVSGALGQKVTISCSGSTMDIDIFGVSWYQQLPGKAPKLLVDSDGDRPSGIPDRFSGSRSGNSGTLTITGLQAEDEADYHCQSGDATLGALAIFGGGTHVTVL
2. can9L12VH_N52A (antibody, V domains shown) VH: EVQLVESGGDLVKPGGSLRLSCVASGFTFSSHGMHWVRQSPGKGLQWVAVIASGGSSTYYTDAVKGRFTISRDNAKNTVYLQMNSLRAEDTAMYYCAKESVGGWEQLVGPHFDYWGQGTLVIVSS VL: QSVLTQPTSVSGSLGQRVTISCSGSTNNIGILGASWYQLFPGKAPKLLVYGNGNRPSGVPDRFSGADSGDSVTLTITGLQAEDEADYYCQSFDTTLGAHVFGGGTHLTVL
3. can9L12VH_G103A (antibody, V domains shown) VH: EVQLVESGGDLVKPGGSLRLSCVASGFTFSSHGMHWVRQSPGKGLQWVAVINSGGSSTYYTDAVKGRFTISRDNAKNTVYLQMNSLRAEDTAMYYCAKESVGAWEQLVGPHFDYWGQGTLVIVSS VL: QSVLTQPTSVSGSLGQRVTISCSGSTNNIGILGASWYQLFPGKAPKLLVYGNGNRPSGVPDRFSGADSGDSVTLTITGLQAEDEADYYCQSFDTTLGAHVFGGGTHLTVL

97.8%
85.8%
99.8%
